targetUnderTest: imidazoline I2 sites
assayOverview: Competition binding of 5 nM [3H]idazoxan to rat liver membranes
testContext: 5 nM [3H]idazoxan (Kd 14 ± 2 nM), mean ± SD, compounds 4 and 8 mean ± 95% confidence intervals
pKi: −log10 of the molar value.
Property: pKi; scope: individual molecules

INSERT INTO results (molecule, quantityname, result) VALUES
  ('N=C(N)c1ccc(O)cc1 [Compound 11, 4-hydroxybenzamidine]', 'pKi', '~4.52'),
  ('COc1cc(C(=N)N)ccc1OCCCOc1ccc(C(=N)N)cc1OC', 'pKi', '~5.46');

Turning now to a further record.
Fill in the blank: the reported pKi of Cc1ccc(N(CC2=NCCN2)c2cccc(O)c2)cc1 [Phentolamine, phentolamine, reference compound] is ____.
< 5.30
